Data provenance is patent US12441726B2.

Below, each of the compounds is paired with its reported IC50 value.
SYSTEM_NAME: BRG-1 (Homo sapiens, UniProt P51532)
Sequence (P51532 whole entry): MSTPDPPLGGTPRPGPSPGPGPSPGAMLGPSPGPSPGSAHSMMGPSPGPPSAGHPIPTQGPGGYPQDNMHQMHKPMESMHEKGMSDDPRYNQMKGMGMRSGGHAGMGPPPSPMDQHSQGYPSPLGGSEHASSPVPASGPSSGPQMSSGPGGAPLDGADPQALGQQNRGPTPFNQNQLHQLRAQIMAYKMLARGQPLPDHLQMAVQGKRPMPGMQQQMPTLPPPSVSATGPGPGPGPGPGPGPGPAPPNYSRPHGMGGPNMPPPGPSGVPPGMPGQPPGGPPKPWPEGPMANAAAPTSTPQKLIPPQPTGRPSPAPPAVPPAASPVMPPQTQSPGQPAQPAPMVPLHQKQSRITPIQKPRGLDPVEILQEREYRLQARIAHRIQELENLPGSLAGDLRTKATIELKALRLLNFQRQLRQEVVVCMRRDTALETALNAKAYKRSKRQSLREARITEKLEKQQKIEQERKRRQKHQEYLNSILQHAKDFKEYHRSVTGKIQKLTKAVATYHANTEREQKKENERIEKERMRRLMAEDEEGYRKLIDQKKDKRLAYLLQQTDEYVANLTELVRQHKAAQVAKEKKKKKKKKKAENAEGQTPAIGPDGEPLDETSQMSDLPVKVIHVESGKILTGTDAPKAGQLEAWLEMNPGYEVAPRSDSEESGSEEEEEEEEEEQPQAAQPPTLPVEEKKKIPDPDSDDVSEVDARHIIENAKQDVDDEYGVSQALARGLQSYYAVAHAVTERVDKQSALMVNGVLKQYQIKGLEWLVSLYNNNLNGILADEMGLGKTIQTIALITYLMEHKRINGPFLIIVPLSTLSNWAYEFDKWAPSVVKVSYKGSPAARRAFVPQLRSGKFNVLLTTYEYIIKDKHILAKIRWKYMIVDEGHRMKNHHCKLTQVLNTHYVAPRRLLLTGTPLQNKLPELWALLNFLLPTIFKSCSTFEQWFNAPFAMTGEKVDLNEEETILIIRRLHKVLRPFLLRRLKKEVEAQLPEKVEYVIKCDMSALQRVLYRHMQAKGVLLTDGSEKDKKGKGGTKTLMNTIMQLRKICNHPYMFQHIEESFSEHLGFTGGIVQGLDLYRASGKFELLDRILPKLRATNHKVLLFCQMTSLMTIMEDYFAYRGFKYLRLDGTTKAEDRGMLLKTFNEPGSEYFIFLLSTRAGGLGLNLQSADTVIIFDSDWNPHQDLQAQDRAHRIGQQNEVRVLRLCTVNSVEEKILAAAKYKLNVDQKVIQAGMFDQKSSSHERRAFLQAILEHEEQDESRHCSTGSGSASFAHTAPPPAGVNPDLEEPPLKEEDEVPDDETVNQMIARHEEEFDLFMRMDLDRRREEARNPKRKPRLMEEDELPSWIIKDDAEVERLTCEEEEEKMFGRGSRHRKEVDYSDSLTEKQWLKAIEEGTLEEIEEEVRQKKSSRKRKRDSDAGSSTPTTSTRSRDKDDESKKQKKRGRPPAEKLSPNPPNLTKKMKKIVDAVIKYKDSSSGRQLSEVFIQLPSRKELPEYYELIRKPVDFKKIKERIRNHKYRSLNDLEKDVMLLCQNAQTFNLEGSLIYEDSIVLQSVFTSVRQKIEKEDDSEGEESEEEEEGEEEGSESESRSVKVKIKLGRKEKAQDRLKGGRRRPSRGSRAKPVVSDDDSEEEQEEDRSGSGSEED
ASSAY_PROCEDURE: ATPase catalytic activity assay (ADP-Glo), BRG-1

Some solved entries appear below for comparison.
- COMPOUND: "CN1CC(c2cccc(-c3ccc4cnc(CNC(=O)c5ccc6c(c5)[C@](C)(C#N)COC6)cc4n3)c2)C1 [Compound 421]"
  READING: "> 1000 nM"
- COMPOUND: "C[C@@]1(C#N)COCc2ccc(C(=O)NCc3cc4nc(-c5ccnc(C6COC6)n5)ccc4cn3)cc21 [Compound 158]"
  READING: "500 to 1000 nM"
- COMPOUND: "C[C@@]1(F)COCc2ccc(C(=O)NCc3cc4nc(-c5cccc(C6(O)CC6)n5)ccc4cn3)cc21 [Compound 271]"
  READING: "100 to 500 nM"
- COMPOUND: "Cn1cc2c(n1)CCN(c1ccc3cnc(CNC(=O)c4ccc5c(c4)[C@](C)(C#N)COC5)cc3n1)C2 [Compound 455]"
  READING: "500 to 1000 nM"
- COMPOUND: "Cn1ncc2c1CN(c1ccc3cnc(CNC(=O)c4ccc5c(c4)[C@](C)(C#N)COC5)cc3n1)C2 [Compound 461]"
  READING: "500 to 1000 nM"

Query string: What does the data say about its IC50? Entry: COc1ccccc1-c1ccc2cnc(CNC(=O)c3ccc4c(c3)[C@](C)(C#N)COC4)cc2n1 [Compound 111]
Result string: 100 to 500 nM

Query string: What does the data say about its IC50? Entry: C[C@@]1(C#N)COCc2ccc(C(=O)NCc3cc4nc(-c5cnn(-c6ccncc6)c5)ccc4cn3)cc21 [Compound 477]
Result string: > 1000 nM

Query string: What does the data say about its IC50? Entry: [2H]C1([2H])OC([2H])([2H])[C@@](C)(F)c2cc(C(=O)NCc3cc4nc(-c5cncc(C6CC6)n5)ccc4cn3)cnc21 [Compound 176]
Result string: 500 to 1000 nM

Query string: What does the data say about its IC50? Entry: C[C@@]1(C#N)COCc2ccc(C(=O)NCc3cc4nc(-c5cc6ccccn6n5)ccc4cn3)cc21 [Compound 164]
Result string: 500 to 1000 nM

Query string: What does the data say about its IC50? Entry: CO[C@@H]1CCN(c2cncc(-c3ccc4cnc(CNC(=O)c5ccc6c(c5)[C@](C)(F)COC6)cc4c3)n2)C1 [Compound 266]
Result string: 100 to 500 nM

Query string: What does the data say about its IC50? Entry: C[C@@]1(C#N)COCc2ccc(C(=O)NCc3cc4nc(-c5ccnc([C@@H]6CC6(F)F)n5)ccc4cn3)cc21 [Compound 218]
Result string: 500 to 1000 nM

Query string: What does the data say about its IC50? Entry: COC(=O)N1CCC2CC2(c2ccc3cnc(CNC(=O)c4ccc5c(c4)[C@](C)(C#N)COC5)cc3n2)C1 (stereo partly shown) [Compound 523]
Result string: 500 to 1000 nM

---

SYSTEM_NAME: BRG-1 (Homo sapiens, UniProt P51532)
ASSAY_PROCEDURE: ATPase catalytic activity assay (ADP-Glo), BRG-1
ASSAY_CONTEXT: 1 h, read-out: BRG1 Max % Inhibition, ADP-Glo, 30 nM BRG-1, 400 μM ATP
MEASURED_PROPERTY: Emax (%)

- RECORD_SMILES: "C[C@@]1(C#N)COCc2ccc(C(=O)NCc3cc4nc(-c5ccnc(N6CC[C@H](F)C6)n5)ccc4cn3)cc21"
  MEASURED_PROPERTY: "Emax"
  U: "%"
  READING: 93
- RECORD_SMILES: "CC(C)(O)c1cccc(-c2ccc3cnc(CNC(=O)c4ccc5c(c4)[C@](C)(C#N)COC5)cc3n2)n1"
  MEASURED_PROPERTY: "Emax"
  U: "%"
  READING: 75
- RECORD_SMILES: "C[C@@]1(C#N)COCc2ccc(C(=O)NCc3cc4cc(-c5cccc(N6CCC6)n5)ccc4nn3)cc21"
  MEASURED_PROPERTY: "Emax"
  U: "%"
  READING: 95
- RECORD_SMILES: "C[C@@]1(F)COCc2ccc(C(=O)NCc3cc4nc(-c5ccnc(N6CCOCC6)n5)ccc4cn3)cc21"
  MEASURED_PROPERTY: "Emax"
  U: "%"
  READING: 88

---

SYSTEM_NAME: UniProt P51531
ASSAY_PROCEDURE: ATPase catalytic activity assay (ADP-Glo), BRM
ASSAY_CONTEXT: BRM ATPase: IC50 (uM), 30 nM BRM, 400 μM ATP
MEASURED_PROPERTY: IC50

Query string: What does the data say about its IC50? Entry: C[C@@]1(C#N)COCc2ncc(C(=O)NCc3cc4nc(-c5cccc(N6CCC6)n5)ccc4cn3)cc21 [Compound 210]
Result string: < 0.1 µM

Query string: What does the data say about its IC50? Entry: COC(=O)c1cccc(C#Cc2ccnc(CNC(=O)c3ccc4c(c3)[C@](C)(O)COC4)c2)c1 [Compound 23]
Result string: 0.5 to 1 µM

Query string: What does the data say about its IC50? Entry: C[C@@]1(C#N)COCc2ccc(C(=O)NCc3cc4nc(-c5cccc(C6(O)CC6)n5)ccc4cn3)cc21 [Compound 384]
Result string: < 0.1 µM

---

SYSTEM_NAME: BRM (Homo sapiens, UniProt P51531)
Sequence (P51531 whole entry): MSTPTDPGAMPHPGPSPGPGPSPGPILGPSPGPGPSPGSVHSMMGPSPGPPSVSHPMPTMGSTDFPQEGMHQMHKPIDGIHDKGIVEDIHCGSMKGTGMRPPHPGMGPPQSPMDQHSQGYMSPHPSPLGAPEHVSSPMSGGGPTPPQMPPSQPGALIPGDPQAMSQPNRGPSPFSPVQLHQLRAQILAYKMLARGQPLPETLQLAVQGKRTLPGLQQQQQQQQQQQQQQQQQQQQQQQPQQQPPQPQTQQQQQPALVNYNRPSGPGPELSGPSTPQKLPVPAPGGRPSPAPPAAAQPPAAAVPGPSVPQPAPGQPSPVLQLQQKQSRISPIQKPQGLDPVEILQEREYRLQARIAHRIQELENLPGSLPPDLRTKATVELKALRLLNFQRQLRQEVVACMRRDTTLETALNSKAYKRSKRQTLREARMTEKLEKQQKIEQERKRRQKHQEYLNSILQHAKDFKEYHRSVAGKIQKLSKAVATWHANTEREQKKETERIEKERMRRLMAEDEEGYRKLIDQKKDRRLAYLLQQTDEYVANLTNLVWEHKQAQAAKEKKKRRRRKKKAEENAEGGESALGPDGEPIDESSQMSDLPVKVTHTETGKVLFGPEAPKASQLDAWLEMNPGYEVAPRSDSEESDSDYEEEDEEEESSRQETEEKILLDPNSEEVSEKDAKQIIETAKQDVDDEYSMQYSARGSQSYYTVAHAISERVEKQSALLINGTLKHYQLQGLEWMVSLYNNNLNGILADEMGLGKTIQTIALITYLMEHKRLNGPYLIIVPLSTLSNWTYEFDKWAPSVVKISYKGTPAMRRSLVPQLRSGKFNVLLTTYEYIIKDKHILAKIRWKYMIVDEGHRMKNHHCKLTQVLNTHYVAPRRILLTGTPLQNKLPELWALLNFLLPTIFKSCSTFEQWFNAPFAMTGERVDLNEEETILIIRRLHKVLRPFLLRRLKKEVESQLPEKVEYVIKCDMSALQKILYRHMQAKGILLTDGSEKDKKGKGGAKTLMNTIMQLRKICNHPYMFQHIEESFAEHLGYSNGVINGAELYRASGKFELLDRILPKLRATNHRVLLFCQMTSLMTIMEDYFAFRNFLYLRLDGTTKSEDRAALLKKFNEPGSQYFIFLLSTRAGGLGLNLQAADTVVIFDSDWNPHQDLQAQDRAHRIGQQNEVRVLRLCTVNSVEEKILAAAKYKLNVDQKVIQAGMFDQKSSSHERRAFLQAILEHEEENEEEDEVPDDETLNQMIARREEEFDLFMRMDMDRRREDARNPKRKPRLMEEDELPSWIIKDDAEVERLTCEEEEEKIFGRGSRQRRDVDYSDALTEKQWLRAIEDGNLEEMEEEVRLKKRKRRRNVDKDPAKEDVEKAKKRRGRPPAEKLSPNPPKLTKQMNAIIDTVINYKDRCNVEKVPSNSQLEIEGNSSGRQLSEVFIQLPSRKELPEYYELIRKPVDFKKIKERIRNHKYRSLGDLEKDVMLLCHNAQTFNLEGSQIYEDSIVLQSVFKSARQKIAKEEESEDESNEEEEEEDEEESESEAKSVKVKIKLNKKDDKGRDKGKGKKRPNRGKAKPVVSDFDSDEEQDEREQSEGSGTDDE
ASSAY_PROCEDURE: ATPase catalytic activity assay (ADP-Glo), BRM
ASSAY_CONTEXT: 30 nM BRM, 400 μM ATP
MEASURED_PROPERTY: BRM Max % Inhibition (%)

- MOLECULE: "C[C@@]1(C#N)COCc2ccc(C(=O)NCc3cc4nc(-c5ccccn5)sc4cn3)cc21"
  SYSTEM_NAME: "BRM (Homo sapiens, UniProt P51531)"
  BRM Max % Inhibition, %: 88
- MOLECULE: "C[C@@]1(C#N)COCc2ccc(C(=O)NCc3cc4nc(-c5ccc6ccc(=O)n(C7CC7)c6n5)ccc4cn3)cc21"
  SYSTEM_NAME: "BRM (Homo sapiens, UniProt P51531)"
  BRM Max % Inhibition, %: 97
- MOLECULE: "COc1cncc(-c2ccc3cnc(CNC(=O)c4ccc5c(c4)[C@](C)(C#N)COC5)cc3n2)c1"
  SYSTEM_NAME: "BRM (Homo sapiens, UniProt P51531)"
  BRM Max % Inhibition, %: 90
- MOLECULE: "Cc1cc(-c2ccc3cnc(CNC(=O)c4ccc5c(c4)[C@](C)(C#N)COC5)cc3n2)n[nH]1"
  SYSTEM_NAME: "BRM (Homo sapiens, UniProt P51531)"
  BRM Max % Inhibition, %: 98
- MOLECULE: "CC(C)(O)c1cccc(-c2ccc3cnc(CNC(=O)c4ccc5c(c4)[C@](C)(C#N)COC5)cc3n2)n1"
  SYSTEM_NAME: "BRM (Homo sapiens, UniProt P51531)"
  BRM Max % Inhibition, %: 93
- MOLECULE: "C[C@@]1(F)COCc2ccc(C(=O)NCc3cc4nc(-c5cncc(C6CC6)n5)ccc4nn3)cc21"
  SYSTEM_NAME: "BRM (Homo sapiens, UniProt P51531)"
  BRM Max % Inhibition, %: 100
- MOLECULE: "C[C@@]1(C#N)COCc2ccc(C(=O)NCc3cc4nc(-c5ccccc5)ccc4cn3)cc21 [Compound 97]"
  SYSTEM_NAME: "BRM (Homo sapiens, UniProt P51531)"
  BRM Max % Inhibition, %: 93
- MOLECULE: "C[C@@]1(O)COCc2ccc(C(=O)NCc3cc4nc(-c5ccccc5)sc4cn3)cc21"
  SYSTEM_NAME: "BRM (Homo sapiens, UniProt P51531)"
  BRM Max % Inhibition, %: 81
- MOLECULE: "Cc1cncc(-c2ccc3cnc(CNC(=O)c4ccc5c(c4)[C@](C)(C#N)COC5)cc3n2)n1"
  SYSTEM_NAME: "BRM (Homo sapiens, UniProt P51531)"
  BRM Max % Inhibition, %: 91
- MOLECULE: "COc1cc(C(F)F)ccc1-c1ccc2cnc(CNC(=O)c3ccc4c(c3)[C@](C)(C#N)COC4)cc2n1"
  SYSTEM_NAME: "BRM (Homo sapiens, UniProt P51531)"
  BRM Max % Inhibition, %: 99
- MOLECULE: "Cn1cc(-c2ccc3cnc(CNC(=O)c4ccc5c(c4)[C@](C)(F)COC5)cc3n2)c(C#N)n1"
  SYSTEM_NAME: "BRM (Homo sapiens, UniProt P51531)"
  BRM Max % Inhibition, %: 87
- MOLECULE: "C[C@@]1(F)COCc2ccc(C(=O)NCc3cc4nc(-c5cccc(C6(O)COC6)n5)ccc4cn3)cc21"
  SYSTEM_NAME: "BRM (Homo sapiens, UniProt P51531)"
  BRM Max % Inhibition, %: 93
- MOLECULE: "C[C@@]1(C#N)COCc2ccc(C(=O)NCc3cc4nc(-c5cc6ccccn6n5)ccc4cn3)cc21"
  SYSTEM_NAME: "BRM (Homo sapiens, UniProt P51531)"
  BRM Max % Inhibition, %: 92
- MOLECULE: "C[C@@]1(C#N)COCc2ccc(C(=O)NCc3cc4nc(-c5ccnc(C(F)F)n5)ccc4cn3)cc21"
  SYSTEM_NAME: "BRM (Homo sapiens, UniProt P51531)"
  BRM Max % Inhibition, %: 92
- MOLECULE: "COc1nn(C2CC2)cc1-c1ccc2cnc(CNC(=O)c3ccc4c(c3)[C@](C)(C#N)COC4)cc2n1"
  SYSTEM_NAME: "BRM (Homo sapiens, UniProt P51531)"
  BRM Max % Inhibition, %: 92
- MOLECULE: "C[C@@]1(C#N)COCc2ccc(C(=O)NCc3cc(N4CCN(c5ccccc5)CC4)ccn3)cc21"
  SYSTEM_NAME: "BRM (Homo sapiens, UniProt P51531)"
  BRM Max % Inhibition, %: 97
- MOLECULE: "C[C@@]1(C#N)COCc2ccc(C(=O)NCc3cc(SCc4ccccc4)ccn3)cc21"
  SYSTEM_NAME: "BRM (Homo sapiens, UniProt P51531)"
  BRM Max % Inhibition, %: 86
- MOLECULE: "CN1CCN(c2cccc(-c3ccc4cnc(CNC(=O)c5ccc6c(c5)[C@](C)(C#N)COC6)cc4n3)c2)CC1"
  SYSTEM_NAME: "BRM (Homo sapiens, UniProt P51531)"
  BRM Max % Inhibition, %: 93
- MOLECULE: "C[C@@]1(C#N)COCc2ccc(C(=O)NCc3cc4nc(-c5ccccc5OCCO)ccc4cn3)cc21"
  SYSTEM_NAME: "BRM (Homo sapiens, UniProt P51531)"
  BRM Max % Inhibition, %: 86
- MOLECULE: "C[C@@]1(C#N)COCc2ccc(C(=O)NCc3cc4cc(-n5cc(F)c(N6CCC6)n5)ccc4nn3)cc21"
  SYSTEM_NAME: "BRM (Homo sapiens, UniProt P51531)"
  BRM Max % Inhibition, %: 98
- MOLECULE: "C[C@@]1(C#N)COCc2ccc(C(=O)NCc3cc4nc(-c5cc(F)cc(N6CCC6)c5)ccc4cn3)cc21"
  SYSTEM_NAME: "BRM (Homo sapiens, UniProt P51531)"
  BRM Max % Inhibition, %: 99
- MOLECULE: "COc1cc(Cl)ccc1-c1ccc2cnc(CNC(=O)c3ccc4c(c3)[C@](C)(C#N)COC4)cc2n1"
  SYSTEM_NAME: "BRM (Homo sapiens, UniProt P51531)"
  BRM Max % Inhibition, %: 99
- MOLECULE: "C[C@@]1(C#N)COCc2ccc(C(=O)NCc3cc4nc(-n5cccc(C6CC6)c5=O)ccc4cn3)cc21"
  SYSTEM_NAME: "BRM (Homo sapiens, UniProt P51531)"
  BRM Max % Inhibition, %: 87
- MOLECULE: "C[C@@]1(C#N)COCc2ccc(C(=O)NCc3cc(N4CCC(c5ccccc5)C4)ccn3)cc21 (some centres unmarked)"
  SYSTEM_NAME: "BRM (Homo sapiens, UniProt P51531)"
  BRM Max % Inhibition, %: 97
- MOLECULE: "C[C@@]1(C#N)COCc2ccc(C(=O)NCc3cc4nc(-n5cccc(N6CCC6)c5=O)ccc4cn3)cc21"
  SYSTEM_NAME: "BRM (Homo sapiens, UniProt P51531)"
  BRM Max % Inhibition, %: 96
- MOLECULE: "CC(=O)N1CCOc2c(-c3ccc4cnc(CNC(=O)c5ccc6c(c5)[C@](C)(C#N)COC6)cc4n3)cccc21"
  SYSTEM_NAME: "BRM (Homo sapiens, UniProt P51531)"
  BRM Max % Inhibition, %: 107
- MOLECULE: "C[C@@H](NC(=O)c1ccc2c(c1)[C@](C)(C#N)COC2)c1cc2nc(-c3ccccc3)ccc2cn1"
  SYSTEM_NAME: "BRM (Homo sapiens, UniProt P51531)"
  BRM Max % Inhibition, %: 96
- MOLECULE: "COc1nn(C)cc1-c1nc2cc(CNC(=O)c3ccc4c(c3)[C@](C)(C#N)COC4)ncc2s1"
  SYSTEM_NAME: "BRM (Homo sapiens, UniProt P51531)"
  BRM Max % Inhibition, %: 93
- MOLECULE: "COC(=O)c1cccc(C#Cc2ccnc(CNC(=O)c3ccc4c(c3)[C@](C)(O)COC4)c2)c1"
  SYSTEM_NAME: "BRM (Homo sapiens, UniProt P51531)"
  BRM Max % Inhibition, %: 85
